Source: ChEMBL document CHEMBL5046254

Recorded selectivity ratio values for a group of compounds are listed next.
- testDetails: Selectivity index, ratio of GIC90 for Cytotoxicity against human THP-1 cells to MIC90 for Antitubercular activity against Mycobacterium aurum ATCC 10437
- Assay type: toxicity, cell-based
- setupConditions: read-out: Selectivity Index
experimentalEndpoint: selectivity ratio

[[record]]
compound = "Oc1ccccc1C1=NNC(c2ccc(Cl)cc2)C1 (configuration not stated)"
reported = 8

[[record]]
compound = "Oc1ccccc1C1=NNC(c2ccc(Br)cc2)C1 (configuration not stated)"
reported = 8


----------
- testDetails: Selectivity index, ratio of GIC90 for cytotoxicity against mouse RAW264.7 cells to MIC90 for Antitubercular activity against Mycobacterium smegmatis mc2155 ATCC 700084
- Format: toxicity, cell-based
- setupConditions: read-out: Selectivity Index
experimentalEndpoint: selectivity ratio

[[record]]
compound = "Oc1ccccc1C1=NNC(c2ccc(Cl)cc2)C1 (configuration not stated)"
reported = 32

[[record]]
compound = "Oc1ccccc1C1=NNC(c2ccc(Br)cc2)C1 (configuration not stated)"
reported = 32

